# Tested on: clinical isolates of L. monocytogenes
# Assay type: cell-based, Listeria monocytogenes
# STUDY_CONDITIONS: strain F4244; broth microdilution in low binding tubes, triplicates, 16 hour incubation, no turbidity
Listed below: MIC values for each entry.
METRIC: MIC

SUBSTANCE | OBSERVED_MEASUREMENT
KFFKFFKFFK-O-cgatcattcaaa-NH2 [PKFF, anti-rpoA PNA covalently conjugated to the (KFF)3K CPP] | 32 µM
RFRRFRRFRRFRXB [(RFR)4XB, cell penetrating peptide (RFR)4XB, reference compound] | >128 µM
RQIKIWFQNRRMKWKK-O-cgatcattcaaa-NH2 [PANT, anti-rpoA PNA covalently conjugated to the antennapedia CPP] | 16 µM
GRKKKRRQRRRYK-O-cgatcattcaaa-NH2 [PTAT, anti-rpoA PNA covalently conjugated to the TAT CPP] | 2 µM
RFRRFRRFRRFRXB-O-cgatcattcaaa-NH2 [PRFR, anti-rpoA PNA covalently conjugated to the (RFR)4XB CPP] | 2 µM
RXRRXRRXRRXRXB [(RXR)4XB, cell penetrating peptide (RXR)4XB, reference compound] | >128 µM
RXRRXRRXRRXRXB-O-cgatcattcaaa-NH2 [PRXR, anti-rpoA PNA covalently conjugated to the (RXR)4XB CPP] | 1 µM

----------
Listed below: MIC values for each entry.
# Tested on: clinical isolates of L. monocytogenes
# Format: cell-based, Listeria monocytogenes
# STUDY_CONDITIONS: strain ATCC 19112; broth microdilution in low binding tubes, triplicates, 16 hour incubation
METRIC: MIC (µM)

SUBSTANCE | UNITS | INEQUALITY_OPERATOR | OBSERVED_MEASUREMENT
RFRRFRRFRRFRXB-O-cgatcattcaaa-NH2 [PRFR, anti-rpoA PNA covalently conjugated to the (RFR)4XB CPP] | µM | = | 4
RXRRXRRXRRXRXB [(RXR)4XB, cell penetrating peptide (RXR)4XB, reference compound] | µM | > | 128
RXRRXRRXRRXRXB-O-cgatcattcaaa-NH2 [PRXR, anti-rpoA PNA covalently conjugated to the (RXR)4XB CPP] | µM | = | 1

----------
# Test system: clinical isolates of L. monocytogenes
# Type: cell-based, Listeria monocytogenes
# STUDY_CONDITIONS: strain ATCC 19112; broth microdilution in low binding tubes, triplicates, 16 hour incubation
Listed below: MIC values for each entry.

SUBSTANCE | INEQUALITY_OPERATOR | MIC (µM)
GRKKKRRQRRRYK-O-cgatcattcaaa-NH2 [PTAT, anti-rpoA PNA covalently conjugated to the TAT CPP] | = | 2
RQIKIWFQNRRMKWKK-O-cgatcattcaaa-NH2 [PANT, anti-rpoA PNA covalently conjugated to the antennapedia CPP] | = | 32
RFRRFRRFRRFRXB [(RFR)4XB, cell penetrating peptide (RFR)4XB, reference compound] | > | 128
KFFKFFKFFK-O-cgatcattcaaa-NH2 [PKFF, anti-rpoA PNA covalently conjugated to the (KFF)3K CPP] | = | 32

----------
# Test system: L. monocytogenes J0161 in infected C. elegans
# METHOD_DESCRIPTION: C. elegans infection model
# STUDY_CONDITIONS: 32 µM, 18 hours treatment, 10 worms in triplicates
METRIC: Log CFUs/worm (Log CFUs/worm)

SUBSTANCE | TEST_TARGET | OBSERVED_MEASUREMENT
KFFKFFKFFK-O-cgatcattcaaa-NH2 [PKFF] | L. monocytogenes J0161 in infected C. elegans | 3.35
RQIKIWFQNRRMKWKK-O-cgatcattcaaa-NH2 [PANT] | L. monocytogenes J0161 in infected C. elegans | 2.49
RFRRFRRFRRFRXB-O-cgatcattcaaa-NH2 [PRFR] | L. monocytogenes J0161 in infected C. elegans | 1.86
GRKKKRRQRRRYK-O-cgatcattcaaa-NH2 [PTAT] | L. monocytogenes J0161 in infected C. elegans | 1.7

----------
# System: L. monocytogenes F4244 inside infected J774A.1 cells
# Format: cell-based
# STUDY_CONDITIONS: 8 μM, 4 hours, intracellular F4244 in J774A.1, versus control

SUBSTANCE | Log CFU reduction / Log CFU
RQIKIWFQNRRMKWKK-O-cgatcattcaaa-NH2 [PANT, anti-rpoA PNA covalently conjugated to the antennapedia CPP] | 2.07
KFFKFFKFFK-O-cgatcattcaaa-NH2 [PKFF, anti-rpoA PNA covalently conjugated to the (KFF)3K CPP] | 0.6

----------
# System: L. monocytogenes F4244
# METHOD_DESCRIPTION: Concentration-dependent bacterial log reduction in pure culture
# Type: cell-based, Listeria monocytogenes
# STUDY_CONDITIONS: 16 µM PNA, relative to control, pure culture F4244
METRIC: Log CFU reduction (Log CFU)

SUBSTANCE | METRIC | OBSERVED_MEASUREMENT
RFRRFRRFRRFRXB-O-cgatcattcaaa-NH2 [PRFR, anti-rpoA PNA covalently conjugated to the (RFR)4XB CPP] | Log CFU reduction | 9.39
GRKKKRRQRRRYK-O-cgatcattcaaa-NH2 [PTAT, anti-rpoA PNA covalently conjugated to the TAT CPP] | Log CFU reduction | 9.39
RQIKIWFQNRRMKWKK-O-cgatcattcaaa-NH2 [PANT, anti-rpoA PNA covalently conjugated to the antennapedia CPP] | Log CFU reduction | 2.66
KFFKFFKFFK-O-cgatcattcaaa-NH2 [PKFF, anti-rpoA PNA covalently conjugated to the (KFF)3K CPP] | Log CFU reduction | 0.98
RXRRXRRXRRXRXB-O-cgatcattcaaa-NH2 [PRXR, anti-rpoA PNA covalently conjugated to the (RXR)4XB CPP] | Log CFU reduction | 9.39

----------
# Tested on: L. monocytogenes F4244
# METHOD_DESCRIPTION: Concentration-dependent bacterial log reduction in pure culture
# Type: cell-based, Listeria monocytogenes
# STUDY_CONDITIONS: 4 µM PNA, pure culture F4244, 16 hour incubation
Listed below: Log CFU/ml values for each entry.
METRIC: Log CFU/ml (Log CFU/ml)

SUBSTANCE | METRIC | UNITS | OBSERVED_MEASUREMENT
RQIKIWFQNRRMKWKK-O-cgatcattcaaa-NH2 [PANT, anti-rpoA PNA covalently conjugated to the antennapedia CPP] | Log CFU/ml | Log CFU/ml | 9.14
KFFKFFKFFK-O-cgatcattcaaa-NH2 [PKFF, anti-rpoA PNA covalently conjugated to the (KFF)3K CPP] | Log CFU/ml | Log CFU/ml | 9.26
RFRRFRRFRRFRXB-O-cgatcattcaaa-NH2 [PRFR, anti-rpoA PNA covalently conjugated to the (RFR)4XB CPP] | Log CFU/ml | Log CFU/ml | 6.10

----------
Listed below: Log CFU reduction values for each entry.
# Test system: L. monocytogenes F4244 inside infected J774A.1 cells
# Format: cell-based
# STUDY_CONDITIONS: 8 μM, 4 hours, intracellular F4244 in J774A.1, versus control
Marks after values point to notes of the source that are not given here.
METRIC: Log CFU reduction

SUBSTANCE | TEST_TARGET | METRIC | OBSERVED_MEASUREMENT
RXRRXRRXRRXRXB-O-cgatcattcaaa-NH2 [PRXR, anti-rpoA PNA covalently conjugated to the (RXR)4XB CPP] | L. monocytogenes F4244 inside infected J774A.1 cells | Log CFU reduction | 6.73* Log CFU
RFRRFRRFRRFRXB-O-cgatcattcaaa-NH2 [PRFR, anti-rpoA PNA covalently conjugated to the (RFR)4XB CPP] | L. monocytogenes F4244 inside infected J774A.1 cells | Log CFU reduction | 2.43* Log CFU
GRKKKRRQRRRYK-O-cgatcattcaaa-NH2 [PTAT, anti-rpoA PNA covalently conjugated to the TAT CPP] | L. monocytogenes F4244 inside infected J774A.1 cells | Log CFU reduction | 2.51* Log CFU
